molecular target: ZFP SBS#429 (synthetic); experiment: EMSA; settings: tags: MBP fusion
Sequence (chain, as listed by the source): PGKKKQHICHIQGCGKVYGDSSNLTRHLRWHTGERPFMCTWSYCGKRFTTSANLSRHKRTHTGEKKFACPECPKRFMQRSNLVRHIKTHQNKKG
pKd: −log10 of the molar value.

binder | pKd
GAAGATGAC (dsDNA) DNA 1: GAAGATGAC DNA 2: GTCATCTTC | 7.30
